# Test system: HCI-017.E2 (organoid from an ER-positive breast cancer xenograft)
# protocolDetails: CTG-3D luminescence at 96 h relative to day-0 seeding control (ratio to day 0); higher = more growth / less cytotoxicity; PDxO 3D drug screen, 96 h, CTG-3D normalised to day-0 seeding control.
# conditionParameters: 625 fM
// not satisfied strictly below 2 in CTG-3D luminescence at 96 h; satisfied otherwise

Here are 3 compounds together with their reported answers.
1. C[C@@H]1COCCN1c1cc(C2([S@](C)(=N)=O)CC2)nc(-c2cc[nH]c3nccc2-3)n1 [ceralasertib] | satisfied
2. COc1cccc2c1C(=O)c1c(O)c3c(c(O)c1C2=O)C[C@@](O)(C(=O)CO)C[C@@H]3O[C@H]1C[C@H](N)[C@H](O)[C@H](C)O1 [doxorubicin] | satisfied
3. C/C=C1\NC(=O)[C@H]2CSSCC/C=C/[C@H](CC(=O)N[C@H](C(C)C)C(=O)N2)OC(=O)[C@H](C(C)C)NC1=O [romidepsin] | not satisfied

Query: Can C[C@H](NC(=O)CCC(F)(F)F)C(=O)N[C@@H]1C(=O)N(CCO)c2ncccc2-c2ccccc21 [crenigacestat] be said to have CTG-3D luminescence at 96 h at or above 2?
Result: satisfied

Query: Can NC(=O)c1cccc2cn(-c3ccc([C@@H]4CCCNC4)cc3)nc12 [niraparib] be said to have CTG-3D luminescence at 96 h at or above 2?
Result: not satisfied

###

# Test system: MDA-MB-231
# protocolDetails: CTG-3D luminescence at 96 h relative to day-0 seeding control (ratio to day 0); higher = more growth / less cytotoxicity; PDxO 3D drug screen, 96 h, CTG-3D normalised to day-0 seeding control.
# conditionParameters: 625 fM
measurementType: CTG-3D luminescence at 96 h
Answers are plain numbers.

1) O=C(O)C1(C(=O)O)CCC1.[NH2-].[NH2-].[Pt+2] | 4.47

Go through the items and report each one's CTG-3D luminescence at 96 h.
1. Nc1ccn([C@@H]2O[C@H](CO)[C@@H](O)C2(F)F)c(=O)n1
2. CC1(C)CCC(c2ccc(Cl)cc2)=C(CN2CCN(c3ccc(C(=O)NS(=O)(=O)c4ccc(N[C@H](CCN5CCOCC5)CSc5ccccc5)c(S(=O)(=O)C(F)(F)F)c4)cc3)CC2)C1

Result:
1: 4.44; 2: 4.6

###

For each record, write down the corresponding CTG-3D luminescence at 96 h.
# Test system: HCI-025 (organoid from a breast cancer xenograft)
# protocolDetails: CTG-3D luminescence at 96 h relative to day-0 seeding control (ratio to day 0); higher = more growth / less cytotoxicity; PDxO 3D drug screen, 96 h, CTG-3D normalised to day-0 seeding control.
# conditionParameters: 0.00025 µM; days in culture: 172
Give bare numbers.

Go through the items and report each one's CTG-3D luminescence at 96 h.
1. CCN1CCN(Cc2ccc(Nc3ncc(F)c(-c4cc(F)c5nc(C)n(C(C)C)c5c4)n3)nc2)CC1
2. COc1cc2c(Oc3ccc4[nH]c(C)cc4c3F)ncnc2cc1OCCCN1CCCC1
3. C[C@@H]1COCCN1c1cc(C2([S@](C)(=N)=O)CC2)nc(-c2cc[nH]c3nccc2-3)n1
4. COc1cccc2c1C(=O)c1c(O)c3c(c(O)c1C2=O)C[C@@](O)(C(=O)CO)C[C@@H]3O[C@H]1C[C@H](N)[C@H](O)[C@H](C)O1
5. CC1(C)CCC(c2ccc(Cl)cc2)=C(CN2CCN(c3ccc(C(=O)NS(=O)(=O)c4ccc(N[C@H](CCN5CCOCC5)CSc5ccccc5)c(S(=O)(=O)C(F)(F)F)c4)cc3)CC2)C1

Result:
1. 1.55
2. 1.84
3. 1.93
4. 1.67
5. 1.84

Go through the items and report each one's CTG-3D luminescence at 96 h.
1. C=CCn1c(=O)c2cnc(Nc3ccc(N4CCN(C)CC4)cc3)nc2n1-c1cccc(C(C)(C)O)n1
2. CC(C)(C(=O)NCC(F)(F)C(F)(F)F)C(=O)N[C@@H]1C(=O)Nc2ccccc2-c2ccccc21

Result:
1. 1.83
2. 2.24
